Numbers sourced from patent US20250051449A1.

# targetOrSystem: T1, human CD112R expressed on Jurkat cells (human, UniProt Q6DKI7 1-326)
# T1 construct: whole, on cells; Used for both Jurkat-CD112R OE cells and wild type Jurkat cells; which cells is said under assay; also called PVRIG; Jurkat-CD112R OE
# T1 sequence (looked up): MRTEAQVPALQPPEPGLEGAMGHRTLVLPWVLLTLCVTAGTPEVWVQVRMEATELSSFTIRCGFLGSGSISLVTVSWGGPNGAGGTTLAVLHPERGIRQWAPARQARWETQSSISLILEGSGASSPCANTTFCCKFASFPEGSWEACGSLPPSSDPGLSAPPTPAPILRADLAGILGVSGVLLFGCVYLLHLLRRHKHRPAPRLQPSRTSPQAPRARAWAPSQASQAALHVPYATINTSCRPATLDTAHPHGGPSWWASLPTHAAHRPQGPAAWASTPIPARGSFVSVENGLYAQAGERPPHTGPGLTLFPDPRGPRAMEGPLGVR
# experimentSummary: flow cytometry, wild type Jurkat cells, 0.63 ug/mL antibody
# Method: The ability of anti-CD112R antibodies to bind to CD112R expressed on cells was evaluated. […] Cellular data was acquired using a LSRFortessa X-20 (BD Biosciences) and analyzed with FlowJo software (Tree Star).
Would you mind telling me the reported gMFI (fold increase over isotype) of each entry?

Query :: Suppose we examine the binder Antibody 5 (antibody, V domains shown, Purified as IgG; compared with an IgG1 isotype control and detected with anti-human IgG Fc; also called antibody clone number 5; clone 5) VH: EVQLLESGGGLVQPGGSLRLSCAASGFTFSDYAMIWVRQAPGKGLEWVSAISGGGESTYYADSVKGRFTISRDNSKNTLYLQMNSLRAEDTAVYYCAKDYSSGDWIDYGMDVWGQGTTVTVSS VL: DIQMTQSPSSLSASVGDRVTITCQASQDISNYLNWYQQKPGKAPKLLIYDASNLATGVPSRFSGSGSGTDFTFTISSLQPEDIATYYCQQFDLLPPTFGGGTKVEIK ; what gMFI (fold increase over isotype) value has been reported?
Result :: 3.8 fold increase over isotype

Query :: Suppose we examine the binder Antibody 10 (antibody, V domains shown, Purified as IgG; compared with an IgG1 isotype control and detected with anti-human IgG Fc; also called antibody clone number 10; clone 10) VH: EVQLVESGGGLVQPGRSLRLSCAASGFTFDDYAVHWVRQAPGKGLEWVSGISWSSGLIGYADSVKGRFTISRDNAKNSLYLQMNSLRAEDTAVYYCAKGPPTYQDYFDLWGRGTLVTVSS VL: EIVLTQSPATLSLSPGERATLSCRASQSVSRYLAWYQQKPGQAPRLLIYDASNRATGIPARFSGSGSGTDFTLTISSLEPEDFAVYYCQQVSFFPPITFGGGTKVEIK ; what gMFI (fold increase over isotype) value has been reported?
Result :: 4.6 fold increase over isotype

Query :: Suppose we examine the binder Antibody 46 (antibody, V domains shown, in the mouse tumor studies it was used as mouse IgG2a; also called antibody clone number 46; clone 46) VH: EVQLVESGGGLVQPGRSLRLSCTASGFTFGDYAMSWFRQAPGKGLEWVGFIGSKAYGGTTEYTASVKGRFTISRDGSKSIAYLQMNSLKTEDTAVYYCARGPRRYTYGMDVWGQGTTVTVSS VL: DIQMTQSPSSLSASVGDRVTITCRASQSISSYLNWYQQKPGKAPKLLIYAASSLQSGVPSRFSGSGSGTDFTLTISSLQPEDFATYYCQQSSTPLTFGGGTKVEIK ; what gMFI (fold increase over isotype) value has been reported?
Result :: 4.2 fold increase over isotype
